Assay Target: recombinant PI3 kinase γ (Homo sapiens (Human))
Test Summary: Enzyme Inhibition Assay (HTRF PI3K enzyme assay, TR-FRET)
Type: biochemical
Assay Setup: activity range; read-out: PI3 Kinase Inhibition IC50 values at stated Isozyme γ
pIC50: −log10 of the molar value.
Recorded Metric: pIC50

Example cases with answers are listed next.
Nc1ncnc2c1c(-c1ccc(O)cc1)nn2Cc1nc2cccc(C#CCCCC(=O)N3CCOCC3)c2c(=O)n1Cc1ccccc1F; > 7.30
Nc1ncnc2c1c(-c1cccc(O)c1)nn2Cc1nc2cccc(C#CCCCCC(=O)O)c2c(=O)n1Cc1ccccc1Cl; > 7.30

Now examine the next entry.
Check the records and state pIC50 for `COc1cc(Cn2c(Cn3nc(-c4ccc(O)cc4)c4c(N)ncnc43)nc3cccc(C#CCCCC(=O)N4CCOCC4)c3c2=O)cc(C(F)(F)F)c1` > 7.30

---

Assay Target: recombinant PI3 kinase γ (Homo sapiens (Human), UniProt P48736)
Sequence (P48736 whole entry): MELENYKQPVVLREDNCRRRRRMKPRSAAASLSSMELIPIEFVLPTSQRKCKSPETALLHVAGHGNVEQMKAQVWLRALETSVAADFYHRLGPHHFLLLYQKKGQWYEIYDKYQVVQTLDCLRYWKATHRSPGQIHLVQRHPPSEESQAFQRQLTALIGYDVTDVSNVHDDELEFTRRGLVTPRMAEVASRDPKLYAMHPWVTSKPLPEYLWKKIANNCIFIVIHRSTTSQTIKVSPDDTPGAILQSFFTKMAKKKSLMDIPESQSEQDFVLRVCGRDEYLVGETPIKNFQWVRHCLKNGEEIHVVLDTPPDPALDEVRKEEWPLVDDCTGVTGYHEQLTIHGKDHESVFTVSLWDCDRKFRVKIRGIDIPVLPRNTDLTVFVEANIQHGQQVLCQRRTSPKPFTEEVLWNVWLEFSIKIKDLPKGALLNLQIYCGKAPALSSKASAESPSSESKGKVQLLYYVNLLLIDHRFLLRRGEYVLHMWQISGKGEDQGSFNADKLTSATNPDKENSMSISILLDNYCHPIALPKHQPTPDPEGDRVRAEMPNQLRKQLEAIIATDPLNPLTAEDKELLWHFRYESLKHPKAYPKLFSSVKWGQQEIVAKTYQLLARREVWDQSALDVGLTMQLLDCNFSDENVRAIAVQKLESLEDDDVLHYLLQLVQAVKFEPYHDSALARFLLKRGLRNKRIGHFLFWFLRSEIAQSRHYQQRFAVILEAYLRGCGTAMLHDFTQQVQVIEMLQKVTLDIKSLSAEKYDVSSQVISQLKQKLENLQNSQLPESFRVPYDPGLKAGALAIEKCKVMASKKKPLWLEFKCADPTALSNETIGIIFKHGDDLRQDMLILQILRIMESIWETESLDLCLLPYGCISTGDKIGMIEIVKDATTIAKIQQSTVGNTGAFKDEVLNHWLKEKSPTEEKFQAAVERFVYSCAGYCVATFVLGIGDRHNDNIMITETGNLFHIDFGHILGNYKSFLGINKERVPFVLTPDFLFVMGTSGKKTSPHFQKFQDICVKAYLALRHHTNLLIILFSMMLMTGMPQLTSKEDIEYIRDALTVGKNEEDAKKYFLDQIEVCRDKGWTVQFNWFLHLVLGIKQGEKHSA
Test Summary: Enzyme Inhibition Assay (HTRF PI3K enzyme assay, TR-FRET)
Format: biochemical
Assay Setup: activity range; read-out: PI3 Kinase Inhibition IC50 values at stated Isozyme γ
Entries and their measured IC50 follow.

Example cases with answers are listed next.
COCC#Cc1cccc2nc(Cn3nc(-c4cccc(O)c4)c4c(N)ncnc43)n(Cc3cccc(C(F)(F)F)c3)c(=O)c12; > 1000 nM
COCCN(CCOC)C(=O)CCCC#Cc1cccc2nc(Cn3nc(-c4ccc(O)cc4)c4c(N)ncnc43)n(Cc3ccccc3Cl)c(=O)c12; < 50 nM
Nc1ncnc2c1c(-c1ccc(O)cc1)nn2Cc1nc2cccc(C#CCCCC(=O)N3CCOCC3)c2c(=O)n1Cc1ccccc1Cl; < 50 nM
Nc1ncnc2c1c(-c1cccc(O)c1)nn2Cc1nc2cccc(C#CCCNC(=O)N3CCOCC3)c2c(=O)n1Cc1ccccc1Cl; < 50 nM

Check the records and state IC50 for `Nc1ncnc2c1c(-c1ccc(O)cc1)nn2Cc1nc2cccc(C#CCCCNC3CCCC3)c2c(=O)n1Cc1ccccc1Cl` 50 to 1000 nM

Check the records and state IC50 for `C#Cc1cccc2nc(Cn3nc(-c4ccc(O)cc4)c4c(N)ncnc43)n(Cc3ccccc3)c(=O)c12` 50 to 1000 nM

Check the records and state IC50 for `Nc1ncnc2c1c(-c1ccc(O)cc1)nn2Cc1nc2cccc(C#CCCCO)c2c(=O)n1Cc1ccccc1Cl` 50 to 1000 nM

Check the records and state IC50 for `C#Cc1cccc2nc(Cn3nc(-c4ccc(O)cc4)c4c(N)ncnc43)n(Cc3ccc(C#N)cc3)c(=O)c12` 50 to 1000 nM

Check the records and state IC50 for `Nc1ncnc2c1c(-c1ccc(O)cc1)nn2Cc1nc2cccc(C#CCOCc3ccccc3)c2c(=O)n1Cc1ccccc1Cl` 50 to 1000 nM

---

Assay Target: recombinant PI3 kinase γ (Homo sapiens (Human))
Test Summary: Enzyme Inhibition Assay (HTRF PI3K enzyme assay, TR-FRET)
Format: biochemical
Assay Setup: read-out: PI3 Kinase Inhibition IC50 values at stated Isozyme (nM) γ
Recorded Metric: IC50 (nM)

Example cases with answers are listed next.
C#Cc1cccc2nc(Cn3nc(-c4cccc(O)c4)c4c(N)ncnc43)n(Cc3ccccc3Cl)c(=O)c12; 234
CC(C)NC(=O)CCCC#Cc1cccc2nc(Cn3nc(-c4ccc(O)cc4)c4c(N)ncnc43)n(Cc3ccccc3Cl)c(=O)c12; 22
Nc1ncnc2c1c(-c1ccc(O)cc1)nn2Cc1nc2cccc(C#CCCCC(=O)N3CCCC3)c2c(=O)n1Cc1ccccc1Cl; 47
Nc1ncnc2c1c(-c1ccc(O)cc1)nn2Cc1nc2cccc(C#CCCCC(=O)N3CCOCC3)c2c(=O)n1Cc1ccccc1Cl; 16
Nc1ncnc2c1c(-c1ccc(O)cc1)nn2Cc1nc2cccc(C#CCCCC(=O)O)c2c(=O)n1Cc1ccccc1Cl; 20

I: C#Cc1cccc2nc(Cn3nc(-c4cccc(O)c4)c4c(N)ncnc43)n(Cc3cccc(OC)c3)c(=O)c12
II: COCC#Cc1cccc2nc(Cn3nc(-c4cccc(O)c4)c4c(N)ncnc43)n(Cc3cccc(C(F)(F)F)c3)c(=O)c12
Which entry shows the lesser value of IC50 here, I or II ? Answer by quoting the chosen item's label. I
(I: 289 nM, II: 1610 nM)

This collection of values is drawn from patent US9321773B2.
